Attribution: paper PMC8291587

TEST_TARGET: hM4R (Homo sapiens, UniProt P08173)
Construct: host or cells: CHO cells, stably transfected; crude membranes
Sequence (P08173 whole entry): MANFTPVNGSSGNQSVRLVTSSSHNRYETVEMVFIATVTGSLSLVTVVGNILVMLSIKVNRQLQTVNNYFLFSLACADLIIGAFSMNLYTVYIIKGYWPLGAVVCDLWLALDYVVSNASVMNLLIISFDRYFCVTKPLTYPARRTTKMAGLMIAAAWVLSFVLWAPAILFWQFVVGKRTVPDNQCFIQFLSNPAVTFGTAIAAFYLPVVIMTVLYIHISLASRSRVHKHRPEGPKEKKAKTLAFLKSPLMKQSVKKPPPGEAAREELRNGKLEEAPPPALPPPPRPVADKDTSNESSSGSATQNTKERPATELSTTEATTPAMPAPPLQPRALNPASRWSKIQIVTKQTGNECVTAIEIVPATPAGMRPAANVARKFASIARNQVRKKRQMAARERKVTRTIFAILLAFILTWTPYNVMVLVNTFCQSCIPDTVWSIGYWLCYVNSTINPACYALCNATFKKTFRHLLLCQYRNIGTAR
TEST: hM4R radioligand binding ([3H]NMS, CHO cell membranes)
ASSAY_CONTEXT: [3H]NMS; CHO membranes; read-out: affinity to hM4R (Ki)
MEASUREMENT_TYPE: Ki (nM)
One number for each entry, in nM.

In one line, give reported Ki of the entry N=C(N)N(CCCCN1CCN(C[C@H]2CC[C@@H](COc3ccccc3)CC2)CC1)Cc1ccccc1 [ADS10227] .
5.1

---

TEST_TARGET: H1R (Cavia porcellus)
Construct: from tissue; host or cells: isolated distal ileum of male guinea pigs
Sequence (P31389 whole entry): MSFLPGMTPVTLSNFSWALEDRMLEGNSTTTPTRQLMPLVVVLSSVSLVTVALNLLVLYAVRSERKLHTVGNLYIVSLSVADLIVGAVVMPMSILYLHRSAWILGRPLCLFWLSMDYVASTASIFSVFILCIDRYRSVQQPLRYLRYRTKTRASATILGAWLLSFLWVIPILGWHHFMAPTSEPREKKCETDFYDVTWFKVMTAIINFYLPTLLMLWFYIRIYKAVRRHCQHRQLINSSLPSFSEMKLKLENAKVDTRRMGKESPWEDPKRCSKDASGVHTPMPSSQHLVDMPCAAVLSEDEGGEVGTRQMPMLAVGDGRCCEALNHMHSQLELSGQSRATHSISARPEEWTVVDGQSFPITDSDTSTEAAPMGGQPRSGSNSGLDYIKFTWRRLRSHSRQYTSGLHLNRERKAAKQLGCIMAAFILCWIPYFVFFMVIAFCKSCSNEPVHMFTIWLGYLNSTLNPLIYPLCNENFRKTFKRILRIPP
TEST: Ex vivo screening of histamine H1R antagonists on guinea pig ileum, variant without atropine
ASSAY_CONTEXT: isolated guinea pig ileum, histamine as agonist, read-out: H1R pA2 gpi ± sem (converted)
Record form. Attribute: Kb. Fill in for each entry.
Give bare numbers, in nM.

Let me know recorded Kb for N=C(N)N(CCCCN1CCN(C[C@H]2CC[C@H](COc3ccccc3)CC2)CC1)Cc1ccccc1 , thanks.
145

Identify measured Kb associated with N=C(N)N(CCCCN1CCN(Cc2ccc(COc3ccccc3)cc2)CC1)Cc1ccccc1
105

Let me know recorded Kb for [H]/N=C(/N)N(CCCCN1CCN(CC2CCC(COc3ccccc3)CC2)CC1)Cc1ccc(C(F)(F)F)cc1 (stereo not shown) , thanks.
110

More entries:
Supply measured Kb of N=C(N)N(CCCCN1CCN(C[C@H]2CC[C@@H](COc3ccccc3)CC2)CC1)Cc1ccccc1 in your reply.
70.8
